Could you please report measured KB for the items listed next?
# subjectOfTest: Adenosine receptor A2b (Homo sapiens)
# Sequence (P29275 whole entry): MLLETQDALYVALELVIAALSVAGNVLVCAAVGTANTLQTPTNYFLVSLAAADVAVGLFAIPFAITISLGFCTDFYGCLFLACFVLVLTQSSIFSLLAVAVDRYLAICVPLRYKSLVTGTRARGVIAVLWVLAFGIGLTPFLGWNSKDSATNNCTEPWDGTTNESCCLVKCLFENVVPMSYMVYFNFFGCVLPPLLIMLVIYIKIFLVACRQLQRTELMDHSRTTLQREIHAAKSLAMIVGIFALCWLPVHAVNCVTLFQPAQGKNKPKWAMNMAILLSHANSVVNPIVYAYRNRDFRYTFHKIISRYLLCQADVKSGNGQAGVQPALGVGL
# methodNotes: Inhibition of luciferase production elicited by NECA by compound in CHO cells transfected with human adenosine A2b receptor and a luciferase expressing reporter plasmid in a reporter gene assay
Write the value in nM as a bare number.

Query: What does the data say about its KB? Entry: `N#Cc1cccc(-c2nc(Nc3cccnc3)sc2-n2cncn2)c1`
Reply: 86

Query: Can you check `N#Cc1cccc(-c2nc(Nc3cccnc3)sc2-n2ccnc2)c1` next?
Reply: 92

Query: Next: `N#Cc1cccc(-c2nc(Nc3ccncc3)sc2-n2cncn2)c1`
Reply: 62

Query: Now the compound `N#Cc1cccc(-c2nc(Nc3ccccn3)sc2-n2cncn2)c1`
Reply: 53

Data provenance is BindingDB's records for doi:10.1016/j.bmcl.2005.04.021.
